# target.under.test: hCA IX (Homo sapiens, UniProt Q16790)
# Construct: made in house
# test: stopped-flow CO2 hydrase assay, hCA IX
# Assay type: biochemical
# settings: Ki (CA I)/Ki (CA IX)
measured.parameter: S.I. I/IX

[[record]]
smiles_input = "NS(=O)(=O)c1ccc(CCNc2c(Nc3ccc(Cl)cc3)c(=O)c2=O)cc1"
measured_parameter = "S.I. I/IX"
recorded_result = 1.8

[[record]]
smiles_input = "NS(=O)(=O)c1ccc(CCNc2c(Nc3ccccc3)c(=O)c2=O)cc1"
measured_parameter = "S.I. I/IX"
recorded_result = 2.8

[[record]]
smiles_input = "NS(=O)(=O)c1ccc(Nc2c(Nc3ccccc3)c(=O)c2=O)cc1"
measured_parameter = "S.I. I/IX"
recorded_result = 5.0

[[record]]
smiles_input = "NS(=O)(=O)c1ccc(CCNc2c(NCCc3ccc(S(N)(=O)=O)cc3)c(=O)c2=O)cc1"
measured_parameter = "S.I. I/IX"
recorded_result = 0.52


###

# target.under.test: hCA XII (Homo sapiens)
# Construct: made in house
# test: stopped-flow CO2 hydrase assay, hCA XII
# Assay type: biochemical
# settings: sulfonamido-containing squaramides; mean from 3 assays, stopped flow
pKi: −log10 of the molar value.
measured.parameter: pKi

[[record]]
smiles_input = "NS(=O)(=O)c1ccc(CCNc2c(Nc3ccc(Cl)cc3)c(=O)c2=O)cc1"
target_under_test = "hCA XII (Homo sapiens)"
recorded_result = 7.04

[[record]]
smiles_input = "NS(=O)(=O)c1ccc(CCNc2c(Nc3ccc(Br)cc3)c(=O)c2=O)cc1"
target_under_test = "hCA XII (Homo sapiens)"
recorded_result = 7.07

[[record]]
smiles_input = "NS(=O)(=O)c1ccc(CCNc2c(Nc3ccc(I)cc3)c(=O)c2=O)cc1"
target_under_test = "hCA XII (Homo sapiens)"
recorded_result = 7.04

[[record]]
smiles_input = "COc1c(Nc2cccc(S(N)(=O)=O)c2)c(=O)c1=O"
target_under_test = "hCA XII (Homo sapiens)"
recorded_result = 8.24

[[record]]
smiles_input = "NS(=O)(=O)c1ccc(Nc2c(Nc3ccccc3)c(=O)c2=O)cc1"
target_under_test = "hCA XII (Homo sapiens)"
recorded_result = 8.18


###

Overview of reported S.I. II/XII across a group of compounds:
# target.under.test: hCA XII (Homo sapiens, UniProt O43570)
# Construct: made in house
# Sequence (O43570 25-354): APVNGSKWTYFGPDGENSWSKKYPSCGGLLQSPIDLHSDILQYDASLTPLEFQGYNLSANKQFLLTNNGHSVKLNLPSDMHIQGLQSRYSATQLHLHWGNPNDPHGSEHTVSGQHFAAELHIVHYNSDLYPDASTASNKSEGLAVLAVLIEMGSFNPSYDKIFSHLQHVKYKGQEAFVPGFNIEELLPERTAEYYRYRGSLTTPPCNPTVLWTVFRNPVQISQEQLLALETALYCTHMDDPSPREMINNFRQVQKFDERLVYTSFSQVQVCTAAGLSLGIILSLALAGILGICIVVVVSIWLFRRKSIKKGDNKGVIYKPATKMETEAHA
# test: stopped-flow CO2 hydrase assay, hCA XII
# Type: biochemical
# settings: Ki (CA II)/Ki (CA XII)
# Method: For that purpose, the stopped-flow CO2 hydration assay was used (Table 1). The inhibitory properties of title compounds against CAs were determined using the stopped-flow CO2 hydrase assay, as previously reported.
measured.parameter: S.I. II/XII

[[record]]
smiles_input = "NS(=O)(=O)c1ccc(CCNc2c(Nc3ccc(Cl)cc3)c(=O)c2=O)cc1"
target_under_test = "hCA XII (Homo sapiens, UniProt O43570)"
recorded_result = 9.1

[[record]]
smiles_input = "NS(=O)(=O)c1ccc(CCNc2c(Nc3ccc(Br)cc3)c(=O)c2=O)cc1"
target_under_test = "hCA XII (Homo sapiens, UniProt O43570)"
recorded_result = 11

[[record]]
smiles_input = "NS(=O)(=O)c1ccc(CCNc2c(NCCc3ccc(S(N)(=O)=O)cc3)c(=O)c2=O)cc1"
target_under_test = "hCA XII (Homo sapiens, UniProt O43570)"
recorded_result = 0.64

[[record]]
smiles_input = "NS(=O)(=O)c1cccc(Nc2c(Nc3ccccc3)c(=O)c2=O)c1"
target_under_test = "hCA XII (Homo sapiens, UniProt O43570)"
recorded_result = 10


###

# target.under.test: hCA I (Homo sapiens)
# Construct: made in house
# Sequence (P00915 whole entry): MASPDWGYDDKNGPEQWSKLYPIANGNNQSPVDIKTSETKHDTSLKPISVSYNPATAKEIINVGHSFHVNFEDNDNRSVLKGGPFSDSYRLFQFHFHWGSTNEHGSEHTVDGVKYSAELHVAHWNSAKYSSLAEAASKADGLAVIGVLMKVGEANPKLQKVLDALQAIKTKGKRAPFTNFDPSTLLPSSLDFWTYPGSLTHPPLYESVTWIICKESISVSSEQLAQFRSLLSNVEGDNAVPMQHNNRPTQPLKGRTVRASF
# test: stopped-flow CO2 hydrase assay, hCA I
# Assay type: biochemical
# settings: sulfonamido-containing squaramides; mean from 3 assays, stopped flow
pKi: −log10 of the molar value.
Overview of reported pKi across a group of molecules:
measured.parameter: pKi

[[record]]
smiles_input = "NS(=O)(=O)c1ccc(Nc2c(Nc3ccccc3)c(=O)c2=O)cc1"
measured_parameter = "pKi"
recorded_result = 7.01

[[record]]
smiles_input = "COc1ccc(Nc2c(NCCc3ccc(S(N)(=O)=O)cc3)c(=O)c2=O)cc1"
measured_parameter = "pKi"
recorded_result = 6.43

[[record]]
smiles_input = "COc1c(Nc2cccc(S(N)(=O)=O)c2)c(=O)c1=O"
measured_parameter = "pKi"
recorded_result = 7.10

[[record]]
smiles_input = "NS(=O)(=O)c1ccc(CCNc2c(Nc3ccc(I)cc3)c(=O)c2=O)cc1"
measured_parameter = "pKi"
recorded_result = 6.33

[[record]]
smiles_input = "NS(=O)(=O)c1ccc(CCNc2c(Nc3ccccc3)c(=O)c2=O)cc1"
measured_parameter = "pKi"
recorded_result = 6.68

[[record]]
smiles_input = "NS(=O)(=O)c1ccc(CCNc2c(NCCc3ccc(S(N)(=O)=O)cc3)c(=O)c2=O)cc1"
measured_parameter = "pKi"
recorded_result = 7.36

[[record]]
smiles_input = "NS(=O)(=O)c1cccc(Nc2c(Nc3ccccc3)c(=O)c2=O)c1"
measured_parameter = "pKi"
recorded_result = 6.24

[[record]]
smiles_input = "NS(=O)(=O)c1ccc(CCNc2c(Nc3ccc(Cl)cc3)c(=O)c2=O)cc1"
measured_parameter = "pKi"
recorded_result = 6.06

[[record]]
smiles_input = "NS(=O)(=O)c1ccc(CCNc2c(Nc3ccc(Br)cc3)c(=O)c2=O)cc1"
measured_parameter = "pKi"
recorded_result = 6.34


###

# target.under.test: hCA XII (Homo sapiens)
# Construct: made in house
# test: stopped-flow CO2 hydrase assay, hCA XII
# Assay type: biochemical
# settings: coumarin-containing squaramides; incubation time 6 h; mean from three assays
pKi: −log10 of the molar value.
Overview of reported pKi across a group of compounds:
measured.parameter: pKi

[[record]]
compound = "Cc1cc(=O)oc2cc(OCCCCCNc3c(Nc4ccc(I)cc4)c(=O)c3=O)ccc12 [Compound 16i]"
target_under_test = "hCA XII (Homo sapiens)"
recorded_result = 7.67

[[record]]
compound = "Cc1cc(=O)oc2cc(OCCCNc3c(Nc4ccccc4)c(=O)c3=O)ccc12 [Compound 16a]"
target_under_test = "hCA XII (Homo sapiens)"
recorded_result = 7.38

[[record]]
compound = "COc1ccc(Nc2c(NCCCCCOc3ccc4c(C)cc(=O)oc4c3)c(=O)c2=O)cc1 [Compound 16e]"
target_under_test = "hCA XII (Homo sapiens)"
recorded_result = 7.71

[[record]]
compound = "Cc1cc(=O)oc2cc(OCCCCCCCCCCCCNc3c(Nc4ccccc4)c(=O)c3=O)ccc12 [Compound 16d]"
target_under_test = "hCA XII (Homo sapiens)"
recorded_result = 8.10

[[record]]
compound = "Cc1c(C)c2ccc(OCCCCCNc3c(Nc4ccc(F)cc4)c(=O)c3=O)cc2oc1=O [Compound 16l]"
target_under_test = "hCA XII (Homo sapiens)"
recorded_result = 7.20

[[record]]
compound = "Cc1c(C)c2ccc(OCCCCCNc3c(Nc4ccc(Br)cc4)c(=O)c3=O)cc2oc1=O [Compound 16n]"
target_under_test = "hCA XII (Homo sapiens)"
recorded_result = 7.16

[[record]]
compound = "Cc1cc(=O)oc2cc(OCCCCCNc3c(Nc4ccccc4)c(=O)c3=O)ccc12 [Compound 16b]"
target_under_test = "hCA XII (Homo sapiens)"
recorded_result = 7.84

[[record]]
compound = "Cc1c(C)c2ccc(OCCCCCNc3c(Nc4ccc(I)cc4)c(=O)c3=O)cc2oc1=O [Compound 16o]"
target_under_test = "hCA XII (Homo sapiens)"
recorded_result = 7.29


###

# target.under.test: hCA XII (Homo sapiens)
# Construct: made in house
# test: stopped-flow CO2 hydrase assay, hCA XII
# Format: biochemical
# settings: Ki (CA II)/Ki (CA XII)
Assign TRUE whenever S.I. II/XII does not fall below 7; assign FALSE whenever it does.

[[record]]
compound = "NS(=O)(=O)c1ccc(CCNc2c(Nc3ccccc3)c(=O)c2=O)cc1 [Compound 5a]"
class = "TRUE"

[[record]]
compound = "COc1ccc(Nc2c(NCCc3ccc(S(N)(=O)=O)cc3)c(=O)c2=O)cc1 [Compound 5b]"
class = "FALSE"

[[record]]
compound = "NS(=O)(=O)c1ccc(Nc2c(Nc3ccccc3)c(=O)c2=O)cc1 [Compound 8]"
class = "TRUE"

[[record]]
compound = "NS(=O)(=O)c1ccc(CCNc2c(Nc3ccc(I)cc3)c(=O)c2=O)cc1 [Compound 5e]"
class = "TRUE"


###

Overview of reported S.I. I/XII across a group of molecules:
# target.under.test: hCA XII (Homo sapiens)
# Construct: made in house
# test: stopped-flow CO2 hydrase assay, hCA XII
# Assay type: biochemical
# settings: Ki (CA I)/Ki (CA XII)
measured.parameter: S.I. I/XII

[[record]]
smiles_input = "NS(=O)(=O)c1ccc(CCNc2c(Nc3ccc(I)cc3)c(=O)c2=O)cc1"
recorded_result = 5.2

[[record]]
smiles_input = "COc1ccc(Nc2c(NCCc3ccc(S(N)(=O)=O)cc3)c(=O)c2=O)cc1"
recorded_result = 2.4

[[record]]
smiles_input = "NS(=O)(=O)c1ccc(CCNc2c(Nc3ccc(Cl)cc3)c(=O)c2=O)cc1"
recorded_result = 9.8

[[record]]
smiles_input = "NS(=O)(=O)c1ccc(CCNc2c(NCCc3ccc(S(N)(=O)=O)cc3)c(=O)c2=O)cc1"
recorded_result = 0.49

[[record]]
smiles_input = "NS(=O)(=O)c1ccc(Nc2c(Nc3ccccc3)c(=O)c2=O)cc1"
recorded_result = 15

[[record]]
smiles_input = "NS(=O)(=O)c1ccc(CCNc2c(Nc3ccc(Br)cc3)c(=O)c2=O)cc1"
recorded_result = 5.3

[[record]]
smiles_input = "NS(=O)(=O)c1ccc(CCNc2c(Nc3ccccc3)c(=O)c2=O)cc1"
recorded_result = 2.2

[[record]]
smiles_input = "COc1c(Nc2cccc(S(N)(=O)=O)c2)c(=O)c1=O"
recorded_result = 14

[[record]]
smiles_input = "NS(=O)(=O)c1cccc(Nc2c(Nc3ccccc3)c(=O)c2=O)c1"
recorded_result = 63

